- TESTED_TARGET: human recombinant acetylcholinesterase (hrAChE) (Homo sapiens, UniProt P22303)
- Construct: purchased Sigma-Aldrich
- Sequence (P22303 32-614): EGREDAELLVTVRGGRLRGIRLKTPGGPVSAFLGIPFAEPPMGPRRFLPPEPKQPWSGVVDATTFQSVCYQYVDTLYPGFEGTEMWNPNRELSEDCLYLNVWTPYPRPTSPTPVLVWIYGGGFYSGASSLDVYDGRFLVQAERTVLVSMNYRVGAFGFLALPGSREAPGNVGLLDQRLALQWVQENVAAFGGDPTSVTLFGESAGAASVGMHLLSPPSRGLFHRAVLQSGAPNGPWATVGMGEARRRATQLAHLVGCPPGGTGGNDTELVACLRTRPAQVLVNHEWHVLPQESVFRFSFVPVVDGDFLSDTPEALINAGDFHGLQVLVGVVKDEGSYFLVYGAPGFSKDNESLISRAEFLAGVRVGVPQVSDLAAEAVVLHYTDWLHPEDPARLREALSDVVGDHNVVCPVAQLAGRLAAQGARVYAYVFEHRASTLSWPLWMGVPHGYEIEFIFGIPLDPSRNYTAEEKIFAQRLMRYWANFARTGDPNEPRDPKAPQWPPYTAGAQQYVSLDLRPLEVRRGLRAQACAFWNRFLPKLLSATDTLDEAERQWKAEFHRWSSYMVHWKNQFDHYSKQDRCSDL
- PROCEDURE_DETAILS: Cholinesterase inhibition assay (Ellman method), hrAChE
- Format: biochemical
- CONDITION_DETAILS: means ± SEM of three independent measurements; read-out: hrAChE IC50
OBSERVABLE: IC50 (µM)
Report the figure in µM without appending any unit label.

Entry COc1cc2c(c3c1OCOC3)C[C@H]1c3c(cc4c(c3OC)OCO4)CC[N+]1=C2.O=C([O-])C(F)(F)F [Compound 2, 7,8-Didehydroorientalidine TFA salt] — recorded IC50 = 18.9

Entry COc1cc2c(c(CO)c1OC)C[C@H]1c3c(cc4c(c3OC)OCO4)CC[N+]1=C2.O=C([O-])C(F)(F)F [Compound 1, 7,8-Didehydromecambridine TFA salt] — recorded IC50 = 66.6

Entry COc1cc2c(c3c1OCOC3)C[C@H]1c3c(cc4c(c3OC)OCO4)CCN1C2 — recorded IC50 = 19.9

Entry COc1cc2c[n+]3c(cc2c(CO)c1OC)-c1c(cc2c(c1OC)OCO2)CC3 — recorded IC50 = 20

---

Answer each item with its documented IC50.
- TESTED_TARGET: electric eel acetylcholinesterase (eeAChE) (Electrophorus electricus, UniProt O42275)
- Construct: purchased Sigma-Aldrich
- Sequence (O42275 24-633): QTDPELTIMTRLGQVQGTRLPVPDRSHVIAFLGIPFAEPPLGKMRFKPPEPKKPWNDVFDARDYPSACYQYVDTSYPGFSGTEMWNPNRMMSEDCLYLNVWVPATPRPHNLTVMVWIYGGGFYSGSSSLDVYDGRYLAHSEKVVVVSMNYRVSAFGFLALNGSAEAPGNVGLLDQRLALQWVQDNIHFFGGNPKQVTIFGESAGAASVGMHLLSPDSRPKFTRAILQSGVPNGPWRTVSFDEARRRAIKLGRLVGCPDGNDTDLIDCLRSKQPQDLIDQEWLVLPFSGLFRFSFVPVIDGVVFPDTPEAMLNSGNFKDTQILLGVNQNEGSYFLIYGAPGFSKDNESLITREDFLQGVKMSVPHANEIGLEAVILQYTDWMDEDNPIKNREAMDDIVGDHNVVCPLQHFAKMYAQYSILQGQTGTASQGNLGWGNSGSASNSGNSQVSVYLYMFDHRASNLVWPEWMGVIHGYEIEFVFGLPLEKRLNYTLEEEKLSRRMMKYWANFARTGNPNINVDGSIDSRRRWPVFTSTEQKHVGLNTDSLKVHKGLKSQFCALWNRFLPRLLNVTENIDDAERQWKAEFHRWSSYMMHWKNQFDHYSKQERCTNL
- PROCEDURE_DETAILS: Cholinesterase inhibition assay (Ellman method), eeAChE
- Assay type: biochemical
- CONDITION_DETAILS: means ± SEM of three independent measurements; read-out: eeAChE IC50
Report the figure in µM without appending any unit label.

Entry COc1cc2c3c(c1O)-c1c(cccc1OC)C[C@@H]3N(C)CC2 — recorded IC50 = 260

Entry COc1cc2c(c(CO)c1OC)C[C@H]1c3c(cc4c(c3OC)OCO4)CC[N+]1=C2.O=C([O-])C(F)(F)F [Compound 1, 7,8-Didehydromecambridine TFA salt] — recorded IC50 = 10.3

Entry COc1cc2c[n+]3c(cc2c(CO)c1OC)-c1c(cc2c(c1OC)OCO2)CC3 — recorded IC50 = 6.8

Entry COc1cc2c(c3c1OCOC3)C[C@H]1c3c(cc4c(c3OC)OCO4)CCN1C2 — recorded IC50 = 5

Entry COc1cc2c(c3c1OCOC3)C[C@H]1c3c(cc4c(c3OC)OCO4)CC[N+]1=C2.O=C([O-])C(F)(F)F [Compound 2, 7,8-Didehydroorientalidine TFA salt] — recorded IC50 = 3.4

---

- TESTED_TARGET: horse serum butyrylcholinesterase (hsBChE) (Equus caballus)
- Sequence (P81908 whole entry): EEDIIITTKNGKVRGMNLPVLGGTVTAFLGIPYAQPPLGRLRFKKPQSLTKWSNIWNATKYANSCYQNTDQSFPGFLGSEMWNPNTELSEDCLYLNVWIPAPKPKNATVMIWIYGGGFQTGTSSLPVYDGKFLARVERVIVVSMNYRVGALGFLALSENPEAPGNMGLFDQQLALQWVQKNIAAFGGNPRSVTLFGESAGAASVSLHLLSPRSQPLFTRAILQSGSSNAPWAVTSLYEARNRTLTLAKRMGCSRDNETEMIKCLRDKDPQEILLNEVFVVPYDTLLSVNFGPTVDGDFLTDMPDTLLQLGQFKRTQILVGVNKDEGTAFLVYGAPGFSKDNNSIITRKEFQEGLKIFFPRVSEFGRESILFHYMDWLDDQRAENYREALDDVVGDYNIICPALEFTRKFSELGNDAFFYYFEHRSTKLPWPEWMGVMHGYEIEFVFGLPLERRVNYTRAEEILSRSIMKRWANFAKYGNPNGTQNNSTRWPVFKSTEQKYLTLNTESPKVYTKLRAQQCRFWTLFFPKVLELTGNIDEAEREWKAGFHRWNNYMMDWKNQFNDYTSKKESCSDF
- PROCEDURE_DETAILS: biochemical
- CONDITION_DETAILS: inhibition constant, Dixon plot, substrate 0.125, 0.25, 0.5 mM
Field 'label' (enum: Yes / No). Set to Yes when Ki is strictly under 40 µM; else No.

Given COc1cc2c[n+]3c(cc2c(CO)c1OC)-c1c(cc2c(c1OC)OCO2)CC3 , is recorded Ki strictly lower than 40 µM?
No

Given COc1cc2c(c(CO)c1OC)C[C@H]1c3c(cc4c(c3OC)OCO4)CC[N+]1=C2.O=C([O-])C(F)(F)F [Compound 1, 7,8-Didehydromecambridine TFA salt] , is recorded Ki strictly lower than 40 µM?
No

Given COc1cc2c3c(c1O)-c1c(cccc1OC)C[C@@H]3N(C)CC2 , is recorded Ki strictly lower than 40 µM?
Yes

Given COc1cc2c(c3c1OCOC3)C[C@H]1c3c(cc4c(c3OC)OCO4)CCN1C2 , is recorded Ki strictly lower than 40 µM?
Yes

Given COc1cc2c3c(c1O)-c1c(cccc1OC)C[C@@H]3[N+](C)(C)CC2 , is recorded Ki strictly lower than 40 µM?
Yes

Given COc1cc2c(c3c1OCOC3)C[C@H]1c3c(cc4c(c3OC)OCO4)CC[N+]1=C2.O=C([O-])C(F)(F)F [Compound 2, 7,8-Didehydroorientalidine TFA salt] , is recorded Ki strictly lower than 40 µM?
No

---

- TESTED_TARGET: horse serum butyrylcholinesterase (hsBChE) (Equus caballus)
- PROCEDURE_DETAILS: biochemical
- CONDITION_DETAILS: means ± SEM of three independent measurements
pIC50: −log10 of the molar value.
Returns one of Yes or No; Yes when pIC50 is >= 4.

Is it the case that COc1cc(C[C@H]2c3cc(O)c(OC)cc3CC[N+]2(C)C)ccc1O [Compound 8, N-methylorientaline] has pIC50 reaching or exceeding 4?
No

Is it the case that COc1cc2c[n+]3c(cc2c(CO)c1OC)-c1c(cc2c(c1OC)OCO2)CC3 [Compound 3, alborine] has pIC50 reaching or exceeding 4?
Yes

Is it the case that COc1cc2c(cc1O)[C@H](Cc1ccc(OC)c(OC)c1)[N+](C)(C)CC2 [Compound 9, N-methylcodamine] has pIC50 reaching or exceeding 4?
No

Is it the case that O=[N+]([O-])CCc1ccc(O[C@@H]2O[C@H](CO[C@@H]3OC[C@@H](O)[C@H](O)[C@H]3O)[C@@H](O)[C@H](O)[C@H]2O)cc1 [Compound 11, thalictricoside] has pIC50 reaching or exceeding 4?
No

Is it the case that COc1cc2c3c(c1O)-c1c(cccc1OC)C[C@@H]3[N+](C)(C)CC2 [Compound 7, N-methylisothebainium] has pIC50 reaching or exceeding 4?
Yes

---

- TESTED_TARGET: electric eel acetylcholinesterase (eeAChE) (Electrophorus electricus)
Field 'label' (enum: Y / N). Set to Y when Ki is strictly under 4 µM; else N.

Given COc1cc2c(c3c1OCOC3)C[C@H]1c3c(cc4c(c3OC)OCO4)CCN1C2 [Compound 4, orientalidine] , is recorded Ki strictly lower than 4 µM?
Y

Given COc1cc2c(c(CO)c1OC)C[C@H]1c3c(cc4c(c3OC)OCO4)CC[N+]1=C2.O=C([O-])C(F)(F)F [Compound 1, 7,8-Didehydromecambridine TFA salt] , is recorded Ki strictly lower than 4 µM?
N

Given COc1cc2c[n+]3c(cc2c(CO)c1OC)-c1c(cc2c(c1OC)OCO2)CC3 [Compound 3, alborine] , is recorded Ki strictly lower than 4 µM?
Y

Given COc1cc2c(c3c1OCOC3)C[C@H]1c3c(cc4c(c3OC)OCO4)CC[N+]1=C2.O=C([O-])C(F)(F)F [Compound 2, 7,8-Didehydroorientalidine TFA salt] , is recorded Ki strictly lower than 4 µM?
Y

Given COc1cc2c3c(c1O)-c1c(cccc1OC)C[C@@H]3N(C)CC2 [Compound 6, isothebaine] , is recorded Ki strictly lower than 4 µM?
N

---

- TESTED_TARGET: human recombinant acetylcholinesterase (hrAChE) (Homo sapiens)
- PROCEDURE_DETAILS: Cholinesterase inhibition assay (Ellman method), hrAChE
- CONDITION_DETAILS: inhibition constant, Dixon plot, substrate 0.125, 0.25, 0.5 mM
Answer each item with its documented pKi.
pKi is defined as minus the log10 of a concentration measured in mol/L.

The value of pKi recorded for COc1cc2c(c3c1OCOC3)C[C@H]1c3c(cc4c(c3OC)OCO4)CC[N+]1=C2.O=C([O-])C(F)(F)F [Compound 2, 7,8-Didehydroorientalidine TFA salt] when tested on human recombinant acetylcholinesterase (hrAChE) (Homo sapiens) reads 5.20

The value of pKi recorded for COc1cc2c(c(CO)c1OC)C[C@H]1c3c(cc4c(c3OC)OCO4)CC[N+]1=C2.O=C([O-])C(F)(F)F [Compound 1, 7,8-Didehydromecambridine TFA salt] when tested on human recombinant acetylcholinesterase (hrAChE) (Homo sapiens) reads 4.51

The value of pKi recorded for COc1cc2c[n+]3c(cc2c(CO)c1OC)-c1c(cc2c(c1OC)OCO2)CC3 when tested on human recombinant acetylcholinesterase (hrAChE) (Homo sapiens) reads 4.88

The value of pKi recorded for COc1cc2c(c3c1OCOC3)C[C@H]1c3c(cc4c(c3OC)OCO4)CCN1C2 when tested on human recombinant acetylcholinesterase (hrAChE) (Homo sapiens) reads 4.86

---

Answer each item with its documented pIC50.
- TESTED_TARGET: human recombinant acetylcholinesterase (hrAChE) (Homo sapiens, UniProt P22303)
- Construct: purchased Sigma-Aldrich
- PROCEDURE_DETAILS: Cholinesterase inhibition assay (Ellman method), hrAChE
- Type: biochemical
- Method: Cholinesterase activities were measured by the Ellman method[58] adapted for 96-well microtiter plates, as previously described.[59] […] A 50 μL amount of each of the cholinesterases was added to start the reactions, which were followed spectrophotometrically at 405 nm and 25 °C for 5 min using a kinetic microplate reader (Dynex Technologies Inc., Chantilly, VA, USA). […] Data were analyzed using OriginPro software (OriginPro 2020, OriginLab Corporation, Northampton, MA, USA).
pIC50: −log10 of the molar value.

Entry COC1=C[C@]23CCN(C)[C@H](Cc4ccc(OC)c(O)c42)C3=CC1=O [Compound 10, salutaridine] — recorded pIC50 = < 3.47

Entry COc1cc2c3c(c1O)-c1c(cccc1OC)C[C@@H]3N(C)CC2 [Compound 6, isothebaine] — recorded pIC50 = < 3.47
